System: L929
PROTOCOL_TEXT: Inhibition of recombinant human TNF-alpha-induced cytotoxicity of mouse L929 cells assessed as survivality preincubated for 15 mins before TNFalpha addition measured after 24 hrs by crystal violet staining
Assay type: functional, cell-based

COMPOUND	Activity
O=c1c(O)c(-c2cc(O)c(O)c(O)c2)oc2cc(O)cc(O)c12 [MYRICETIN]	Dose-dependent effect
O=c1c(O)c(-c2ccc(O)c(O)c2)oc2cc(O)cc(O)c12 [QUERCETIN]	Dose-dependent effect
O=c1c(O)c(-c2ccc(O)cc2O)oc2cc(O)cc(O)c12 [MORIN]	Dose-dependent effect
C[C@@H]1O[C@@H](OC[C@H]2O[C@@H](Oc3c(-c4ccc(O)c(O)c4)oc4cc(O)cc(O)c4c3=O)[C@H](O)[C@@H](O)[C@@H]2O)[C@H](O)[C@H](O)[C@H]1O [RUTIN]	Dose-dependent effect
O=c1c(O)c(-c2ccc(O)cc2)oc2cc(O)cc(O)c12 [KAEMPFEROL]	Dose-dependent effect
O=c1c(O)c(-c2ccccc2)oc2cc(O)cc(O)c12 [GALANGIN]	Dose-dependent effect
COc1ccc(-c2oc3cc(O)cc(O)c3c(=O)c2O)cc1 [KAEMPFERIDE]	Dose-dependent effect
